The values you see were collected from patent US20120277265A1.

ASSAYED_SYSTEM: copper complexes of Aβ1-42 peptide (Homo sapiens)
Construct: The β-amyloid peptide Aβ1-42 (Aβ1-42) was synthesised, purified (to a purity greater than 95%); made in house; host or cells: chemical peptide synthesis (no expression host)
Sequence (P05067 672-713 limits assumed, one chain of several): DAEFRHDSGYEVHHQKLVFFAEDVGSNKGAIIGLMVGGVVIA
METHOD_SUMMARY: Hydrogen peroxide produced by Aβ1-42 in the presence of CuCl2, ascorbate, air and ligand (Amplex Red H2O2/HRP)
Assay type: biochemical
DETAILS: ligand 1 eq/Cu(II) (0.4 μM); CuCl2 0.4 μM, ascorbate 10 μM, air
Please provide measured amount of H2O2, 0.2 μM Aβ1-42 Cu/Aβ = 2 for the entries that follow.
A complete answer gives the number followed by the unit.

// amount of H2O2, 0.2 μM Aβ1-42 Cu/Aβ = 2 lookup, molecule = c1cnc2c(NCCCNc3cccc4cccnc34)cccc2c1 , result: 2.10 nmol

// amount of H2O2, 0.2 μM Aβ1-42 Cu/Aβ = 2 lookup, molecule = Oc1cccc2ccc(CCc3ccc4cccc(O)c4n3)nc12 , result: 0.89 ± 0.07 nmol

// amount of H2O2, 0.2 μM Aβ1-42 Cu/Aβ = 2 lookup, molecule = CC(C)(c1ccc2cccc(O)c2n1)c1ccc2cccc(O)c2n1 , result: 0.71 ± 0.02 nmol

// amount of H2O2, 0.2 μM Aβ1-42 Cu/Aβ = 2 lookup, molecule = CC(C)(c1ccc2c(Cl)ccc(O)c2n1)c1ccc2c(Cl)ccc(O)c2n1 , result: 0.37 ± 0.09 nmol

// amount of H2O2, 0.2 μM Aβ1-42 Cu/Aβ = 2 lookup, molecule = Oc1ccc(Cl)c2ccc(Cc3ccc4c(Cl)ccc(O)c4n3)nc12 , result: 0.80 ± 0.23 nmol

// amount of H2O2, 0.2 μM Aβ1-42 Cu/Aβ = 2 lookup, molecule = COc1ccc2ccc(Cc3ccc4ccc(OC)c(O)c4n3)nc2c1O.Cl.Cl , result: 0.70 nmol

// amount of H2O2, 0.2 μM Aβ1-42 Cu/Aβ = 2 lookup, molecule = Oc1cccc2cccnc12 [8-hydroxyquinoline, reference compound] , result: 0.69 nmol

// amount of H2O2, 0.2 μM Aβ1-42 Cu/Aβ = 2 lookup, molecule = Oc1cccc2ccc(Cc3ccc4cccc(O)c4n3)nc12 [Compound 1, 2,2′-methanediyl-bis(8-hydroxyquinoline)] , result: 0.75 ± 0.11 nmol

// amount of H2O2, 0.2 μM Aβ1-42 Cu/Aβ = 2 lookup, molecule = Cc1ccc2cccc(NCCNc3cccc4ccc(C)nc34)c2n1 , result: 1.99 nmol

// amount of H2O2, 0.2 μM Aβ1-42 Cu/Aβ = 2 lookup, molecule = CCCCN(c1ccc2cccc(N)c2n1)c1ccc2cccc(N)c2n1 , result: 0.69 nmol

// amount of H2O2, 0.2 μM Aβ1-42 Cu/Aβ = 2 lookup, molecule = c1cnc2c(Oc3cccc4cccnc34)cccc2c1 , result: 1.02 nmol

// amount of H2O2, 0.2 μM Aβ1-42 Cu/Aβ = 2 lookup, molecule = Oc1ccc(Cl)c2ccc(CCc3ccc4c(Cl)ccc(O)c4n3)nc12 , result: 0.89 ± 0.09 nmol

// amount of H2O2, 0.2 μM Aβ1-42 Cu/Aβ = 2 lookup, molecule = Oc1c(I)cc(Cl)c2cccnc12 [Clioquinol, reference compound] , result: 0.89 ± 0.08 nmol

// amount of H2O2, 0.2 μM Aβ1-42 Cu/Aβ = 2 lookup, molecule = COc1ccc2ccc(CCc3ccc4ccc(OC)c(O)c4n3)nc2c1O , result: 0.69 nmol

// amount of H2O2, 0.2 μM Aβ1-42 Cu/Aβ = 2 lookup, molecule = Oc1c(I)cc(Cl)c2ccc(CCc3ccc4c(Cl)cc(I)c(O)c4n3)nc12 , result: 0.82 ± 0.08 nmol

// amount of H2O2, 0.2 μM Aβ1-42 Cu/Aβ = 2 lookup, molecule = c1cnc2c(Nc3cccc4cccnc34)cccc2c1 , result: 0.47 ± 0.09 nmol
